tested_on: Chk-1 kinase (Homo sapiens (Human))
Sequence (O14757 whole entry): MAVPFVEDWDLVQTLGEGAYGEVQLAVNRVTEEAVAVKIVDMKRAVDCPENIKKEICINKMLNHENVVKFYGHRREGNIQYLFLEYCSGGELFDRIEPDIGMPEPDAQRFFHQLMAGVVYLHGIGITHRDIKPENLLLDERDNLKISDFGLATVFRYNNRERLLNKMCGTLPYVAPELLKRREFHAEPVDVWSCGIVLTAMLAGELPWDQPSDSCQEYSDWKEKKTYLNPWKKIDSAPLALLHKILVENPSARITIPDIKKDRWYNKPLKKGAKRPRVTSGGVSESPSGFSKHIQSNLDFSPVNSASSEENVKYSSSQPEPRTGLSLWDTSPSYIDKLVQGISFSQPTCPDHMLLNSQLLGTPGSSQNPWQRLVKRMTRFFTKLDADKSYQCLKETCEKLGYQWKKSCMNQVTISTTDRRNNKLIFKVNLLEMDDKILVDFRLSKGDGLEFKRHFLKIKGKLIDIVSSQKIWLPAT
measurement_notes: Chk-1 kinase inhibiting activity (33P-ATP filter-binding kinase assay)
test_conditions: against Chk-1 kinase; recombinant full length GST-tagged, 0.5 nM; CHKtide substrate 20 μM; 120 minutes at room temperature
Structures can show the parent of a compound that is named as a salt.
value_kind: pIC50
# log scale: pIC50 equals minus log10 of the concentration in mol/L

[[record]]
compound = "COc1cc(CN2CC[C@@H](OC)C2)ccc1-c1cc(Nc2cnc(C#N)cn2)n[nH]1 [Example 125, hydrochloride]"
result_value = 9.55


Shifting focus to the compound that follows.
Which pIC50 value belongs to COc1cc(CN2CC[C@H](OC)C2)ccc1-c1cc(Nc2cnc(C#N)cn2)n[nH]1 [Example 124, hydrochloride] ?
9.60
